# subject.of.test: human Topo I (Homo sapiens)
# Sequence (P11387 whole entry): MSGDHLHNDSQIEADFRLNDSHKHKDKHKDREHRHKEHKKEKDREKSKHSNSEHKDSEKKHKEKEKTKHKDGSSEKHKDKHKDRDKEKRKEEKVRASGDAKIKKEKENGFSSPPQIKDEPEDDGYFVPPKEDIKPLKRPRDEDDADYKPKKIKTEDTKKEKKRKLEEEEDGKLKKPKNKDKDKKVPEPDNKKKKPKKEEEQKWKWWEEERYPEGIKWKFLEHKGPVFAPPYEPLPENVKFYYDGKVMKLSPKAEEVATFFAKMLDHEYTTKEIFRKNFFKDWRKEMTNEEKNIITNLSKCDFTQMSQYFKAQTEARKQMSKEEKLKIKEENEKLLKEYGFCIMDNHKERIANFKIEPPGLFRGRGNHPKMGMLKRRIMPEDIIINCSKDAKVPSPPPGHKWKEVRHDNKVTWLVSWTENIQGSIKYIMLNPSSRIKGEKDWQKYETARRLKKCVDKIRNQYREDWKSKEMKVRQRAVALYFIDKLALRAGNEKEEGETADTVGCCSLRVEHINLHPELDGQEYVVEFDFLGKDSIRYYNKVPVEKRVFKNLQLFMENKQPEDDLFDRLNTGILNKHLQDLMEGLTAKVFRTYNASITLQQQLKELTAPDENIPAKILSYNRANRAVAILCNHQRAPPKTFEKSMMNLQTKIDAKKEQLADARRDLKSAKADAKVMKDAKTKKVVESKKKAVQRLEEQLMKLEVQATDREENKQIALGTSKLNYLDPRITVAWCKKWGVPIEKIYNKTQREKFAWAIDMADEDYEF
# assay.method.text: Solid phase topo I HTS assay (His-tag topo I on nickel coated plates, pHOT1 DNA retention by Picogreen fluorescence)
# Format: biochemical
# Design: The intact human topo I gene was cloned as a His-tag gene; purchased TopoGEN, Inc. (Port Orange, Fla.); host or cells: baculovirus-infected Spodoptera frugiperda Sf9 cells
# study.conditions: test drug about 100 uM; about 1.0 = minus CPT control; solid phase
*1 amine or outer side, *2 acyl side, *3 side chain or, on linkers, in order; H or OH if unused. Where a SMILES comes first, the peptide text is derived from it. Bridges are numbered along the chain shown (N, C = ends). Roman numbers before positions name the chains, in order. [ ]: non-standard residue; d: D form. Actinocin(9to1) = Cc1c2oc3c(C)ccc(C(=O)[*:1])c3nc-2c(C(=O)[*:2])c(N)c1=O; NMeV = CN[C@H](C(=O)O)C(C)C; Sar = CNCC(=O)O
readout.kind: HTS Ratio (RFU experimental / RFU negative control, no CPT)

>  <molecule>
Cc1c2oc3c(C)ccc(C(=O)N[C@@H]4C(=O)N[C@H](C(C)C)C(=O)N5CCC[C@H]5C(=O)N(C)CC(=O)N(C)[C@@H](C(C)C)C(=O)O[C@@H]4C)c3nc-2c(C(=O)N[C@@H]2C(=O)N[C@H](C(C)C)C(=O)N3CCC[C@H]3C(=O)N(C)CC(=O)N(C)[C@@H](C(C)C)C(=O)O[C@@H]2C)c(N)c1=O [Dactinomycin] (I: T[dV]P[Sar][NMeV] / II: T[dV]P[Sar][NMeV]; ester I:1-I:C, II:1-II:C; linker I:N-II:N via Actinocin(9to1))

>  <reported.measurement>
about 1.4

$$$$
>  <molecule>
N[C@@H](Cc1ccc(N(CCCl)CCCl)cc1)C(=O)O

>  <reported.measurement>
1.2-1.3

$$$$
>  <molecule>
CCc1c2c(nc3ccc(OC(=O)N4CCC(N5CCCCC5)CC4)cc13)-c1cc3c(c(=O)n1C2)COC(=O)[C@]3(O)CC

>  <reported.measurement>
about 1.4

$$$$
